target.desc: EGFR^T790M (Homo sapiens, UniProt P00533, T790M)
Construct: purchased Sigma
Sequence (P00533 25-1210 T790M): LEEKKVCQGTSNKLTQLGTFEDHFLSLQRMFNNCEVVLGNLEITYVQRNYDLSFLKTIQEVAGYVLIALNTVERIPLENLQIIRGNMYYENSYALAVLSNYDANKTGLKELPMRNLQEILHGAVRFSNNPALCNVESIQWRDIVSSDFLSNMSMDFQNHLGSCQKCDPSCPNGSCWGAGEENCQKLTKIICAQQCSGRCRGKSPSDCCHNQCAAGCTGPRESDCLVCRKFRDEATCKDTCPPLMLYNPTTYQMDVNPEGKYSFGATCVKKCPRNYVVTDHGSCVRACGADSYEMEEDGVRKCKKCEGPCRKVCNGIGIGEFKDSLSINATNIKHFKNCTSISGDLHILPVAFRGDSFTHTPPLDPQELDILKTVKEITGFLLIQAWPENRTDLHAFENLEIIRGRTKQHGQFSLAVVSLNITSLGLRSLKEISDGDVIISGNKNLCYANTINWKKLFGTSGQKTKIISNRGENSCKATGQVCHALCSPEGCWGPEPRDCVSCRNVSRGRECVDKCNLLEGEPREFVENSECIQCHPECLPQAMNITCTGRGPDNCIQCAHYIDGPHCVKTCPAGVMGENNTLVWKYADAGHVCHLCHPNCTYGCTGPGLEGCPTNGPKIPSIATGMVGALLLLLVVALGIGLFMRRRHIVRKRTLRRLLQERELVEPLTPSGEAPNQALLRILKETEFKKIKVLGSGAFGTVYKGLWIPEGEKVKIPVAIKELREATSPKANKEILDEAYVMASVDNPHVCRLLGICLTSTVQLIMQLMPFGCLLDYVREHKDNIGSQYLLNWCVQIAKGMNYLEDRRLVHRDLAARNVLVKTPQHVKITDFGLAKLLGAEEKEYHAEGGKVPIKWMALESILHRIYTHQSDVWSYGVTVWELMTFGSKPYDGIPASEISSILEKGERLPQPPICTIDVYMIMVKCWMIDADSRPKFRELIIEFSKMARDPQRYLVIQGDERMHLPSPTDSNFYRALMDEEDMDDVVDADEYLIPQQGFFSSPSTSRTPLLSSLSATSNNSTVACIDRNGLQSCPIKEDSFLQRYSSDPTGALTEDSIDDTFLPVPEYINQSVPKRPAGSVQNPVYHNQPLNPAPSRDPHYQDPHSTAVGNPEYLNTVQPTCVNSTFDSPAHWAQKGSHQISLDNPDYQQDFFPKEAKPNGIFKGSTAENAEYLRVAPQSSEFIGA
assay.protocol: EGFR^T790M kinase inhibitory assay (HTRF)
Assay type: biochemical
condition.label: supplement graph, axis Log (nM); read-out: IC50 (best-fit value of graph), EGFRT790M inhibition
property: IC50 (nM)
Give the number; nM is assumed, so skip it.

The molecule listed as CC(=NNc1nc(Nc2ccccc2)nc2c1cnn2-c1ccccc1)c1ccc(Cl)cc1 [Compound 12b] shows IC50 equal to 235

====

Measured HillSlope (best-fit value), EGFR inhibition accompanies every entry in the list below.
target.desc: EGFR^WT (Homo sapiens, UniProt P00533)
Construct: purchased Sigma
Sequence (P00533 25-1210): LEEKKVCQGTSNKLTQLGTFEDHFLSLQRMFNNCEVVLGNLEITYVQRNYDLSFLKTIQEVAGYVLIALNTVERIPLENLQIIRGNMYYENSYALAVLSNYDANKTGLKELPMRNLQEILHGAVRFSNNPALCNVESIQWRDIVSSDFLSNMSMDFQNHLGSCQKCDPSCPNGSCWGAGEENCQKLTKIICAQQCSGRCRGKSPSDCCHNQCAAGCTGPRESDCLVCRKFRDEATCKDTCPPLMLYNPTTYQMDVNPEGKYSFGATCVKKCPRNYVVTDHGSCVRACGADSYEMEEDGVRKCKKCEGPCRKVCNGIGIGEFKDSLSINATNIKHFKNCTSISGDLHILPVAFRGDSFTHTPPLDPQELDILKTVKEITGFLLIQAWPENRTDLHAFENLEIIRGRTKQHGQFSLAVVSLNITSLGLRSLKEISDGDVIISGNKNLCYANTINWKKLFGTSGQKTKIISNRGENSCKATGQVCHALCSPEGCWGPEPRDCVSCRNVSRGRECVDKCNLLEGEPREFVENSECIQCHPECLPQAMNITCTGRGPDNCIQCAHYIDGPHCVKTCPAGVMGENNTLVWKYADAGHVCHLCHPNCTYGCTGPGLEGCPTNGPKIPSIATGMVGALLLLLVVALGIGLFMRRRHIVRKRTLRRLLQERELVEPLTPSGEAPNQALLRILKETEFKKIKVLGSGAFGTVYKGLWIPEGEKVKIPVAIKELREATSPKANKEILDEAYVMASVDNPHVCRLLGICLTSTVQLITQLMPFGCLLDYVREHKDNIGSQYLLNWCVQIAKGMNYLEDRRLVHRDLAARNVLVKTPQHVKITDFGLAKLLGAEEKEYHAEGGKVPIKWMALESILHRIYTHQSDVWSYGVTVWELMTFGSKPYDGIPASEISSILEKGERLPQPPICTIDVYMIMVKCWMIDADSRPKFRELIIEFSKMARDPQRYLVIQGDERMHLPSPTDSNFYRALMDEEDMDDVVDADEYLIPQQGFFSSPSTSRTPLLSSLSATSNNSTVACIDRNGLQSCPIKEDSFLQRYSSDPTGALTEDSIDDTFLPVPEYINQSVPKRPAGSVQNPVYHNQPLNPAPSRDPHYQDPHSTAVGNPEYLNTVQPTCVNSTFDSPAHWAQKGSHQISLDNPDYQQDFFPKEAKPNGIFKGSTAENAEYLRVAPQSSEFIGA
assay.protocol: EGFR^WT kinase inhibitory assay (HTRF)
Format: biochemical
condition.label: supplement graph
Just the number, please, no unit after it.

Record NNc1nc(Nc2ccccc2)nc2c1cnn2-c1ccccc1 . Reported HillSlope (best-fit value), EGFR inhibition: -0.3619

Recorded HillSlope (best-fit value), EGFR inhibition (compound CC(=NNc1nc(Nc2ccccc2)nc2c1cnn2-c1ccccc1)c1ccccc1 [Compound 12a] ): -0.3296

Value of HillSlope (best-fit value), EGFR inhibition reported for the compound CC(=NNc1nc(Nc2ccccc2)nc2c1cnn2-c1ccccc1)c1ccc(Cl)cc1 [Compound 12b] is -0.3524

Form field HillSlope (best-fit value), EGFR inhibition, entry c1ccc(Nc2nc(Nc3ccccc3)c3cnn(-c4ccccc4)c3n2)cc1 : -0.3385

====

assay.protocol: in vitro
condition.label: human, WI-38 normal cells
property: IC50 at 2 days (µM)
Response body: numeric value in µM, unit text excluded.

# molecule, IC50 at 2 days [µM]
measured = [
    ("C#Cc1cccc(Nc2ncnc3cc(OCCOC)c(OCCOC)cc23)c1 [Erlotinib, reference compound]", 33.8),
]

// moving on: another record for IC50 at 2 days
Noted for CC(=NNc1nc(Nc2ccccc2)nc2c1cnn2-c1ccccc1)c1ccc(Cl)cc1 [Compound 12b] : its IC50 at 2 days reads 39.1

Provenance of the data: paper PMC9466626
